// data source = PubChem BioAssay (NCI)

Below: a set of entries, each annotated with reported growth.
System: HCC-2998 colon
Experiment: NCI-60 one-dose screen, 48 h (100 = growth as untreated, 0 = no growth, -100 = all killed)
Conditions: 10 µM unless noted
Method: Growth inhibition of the HCC-2998 human tumor cell line is measured as a screen for anti-cancer activity. Cells are grown in 96 well plates and exposed to the test compound for 48 hours. Compounds are tested at a single concentration, which is 10^-5 M for most compounds. The reported endpoint is percent growth (GI% or GIPRCNT), where numbers from 0 - 100% represent growth inhibition, and numbers from -100% - 0 represent cell death. For example, a value of 40 represents 60% growth inhibition. […]
This is part of a sample that, as a whole, favours compounds with a hit. Of some 83,000 tested, about 20% had one in any assay.
Kindly provide the numeric value in % only, without the unit symbol.

INSERT INTO results (compound, result) VALUES
  ('COc1cc2c(cc1OC)CN(C)C(C)C2 (stereo unspecified)', 97.5);

Ask: Find the recorded growth belonging to O=CN1N=C(c2ccccc2)CC1c1sc(N(CCCl)CCCl)nc1Cl (stereo unspecified) and report it.
Result: 103

Ask: Find the recorded growth belonging to O=C1NC(=O)C(=Cc2cn(Cc3ccccc3)c3ccccc23)C(=O)N1 and report it.
Result: 70.2

Ask: Find the recorded growth belonging to Fc1ccc(C2=NN(c3ccccc3)C(c3sc(N(CCCl)CCCl)nc3Cl)C2)cc1 (stereo unspecified) and report it.
Result: 103

---

Test system: HS 578T breast
Assay: NCI-60 one-dose screen, 48 h
Conditions: 10 µM unless noted
Compounds without any hit were thinned out: in the full panel of roughly 83,000, 20% have a hit. Activity calls are given as the source filed them. How the source made its calls: active means growth percent below 10; inactive means the rest.
Lab note: assign the record to one of Y (active), N (inactive)

INSERT INTO assay_data (molecule, class_label) VALUES
  ('C[CH2][Pb]([CH2]C)([CH2]C)[O]C(=O)COC', 'Y');

Ask: Which result was noted for this molecule in the test: O=CN1N=C(c2ccccc2)CC1c1sc(N(CCCl)CCCl)nc1Cl (centres undefined)
Result: N

Ask: Which result was noted for this molecule in the test: O=C(O)CNC(=O)c1ccccc1
Result: N

Ask: Which result was noted for this molecule in the test: CCOC(=O)C1(c2ccccc2)CCN(CC(=O)c2ccc(NC(C)=O)cc2)CC1
Result: N

Ask: Which result was noted for this molecule in the test: CC(/C=N/N=C(N)N)=N\N=C(N)N
Result: N

Ask: Which result was noted for this molecule in the test: C[C@]12CC[C@H](OC3OC(O)C(O)C(O)C3O)C=C1CCC1C2CC[C@]2(C)[C@@H](c3ccc(=O)oc3)CC[C@]12O (some centres undefined)
Result: Y

Ask: Which result was noted for this molecule in the test: O=c1cc[nH]c(=O)o1
Result: N

Ask: Which result was noted for this molecule in the test: COc1ccc(CN2CCN(Cc3ccccc3)CC2)c(O)c1
Result: N

Ask: Which result was noted for this molecule in the test: CN(C)P1(N(C)C)=NP(N(C)C)(N(C)C)=NP(N(C)C)(N(C)C)=N1
Result: N

Ask: Which result was noted for this molecule in the test: O=CC(Br)C(Br)c1ccccc1 (centres undefined)
Result: N

Ask: Which result was noted for this molecule in the test: C=CC(O)CN1CC1CC (centres undefined)
Result: N

Ask: Which result was noted for this molecule in the test: CNC(=O)Oc1cccc(N(C)C)c1
Result: N

Ask: Which result was noted for this molecule in the test: CC1CC=CCC12C(=O)NC(=S)NC2=O (centres undefined)
Result: N

Ask: Which result was noted for this molecule in the test: Cn1cnnc1[S-].[Au+].c1ccc([PH+](c2ccccc2)c2ccccc2)cc1
Result: N
